Target: Ubiquitin-activating enzyme e1, putative (Leishmania donovani (strain BPK282A1)) (UniProt E9BSI1)
Sequence (whole entry): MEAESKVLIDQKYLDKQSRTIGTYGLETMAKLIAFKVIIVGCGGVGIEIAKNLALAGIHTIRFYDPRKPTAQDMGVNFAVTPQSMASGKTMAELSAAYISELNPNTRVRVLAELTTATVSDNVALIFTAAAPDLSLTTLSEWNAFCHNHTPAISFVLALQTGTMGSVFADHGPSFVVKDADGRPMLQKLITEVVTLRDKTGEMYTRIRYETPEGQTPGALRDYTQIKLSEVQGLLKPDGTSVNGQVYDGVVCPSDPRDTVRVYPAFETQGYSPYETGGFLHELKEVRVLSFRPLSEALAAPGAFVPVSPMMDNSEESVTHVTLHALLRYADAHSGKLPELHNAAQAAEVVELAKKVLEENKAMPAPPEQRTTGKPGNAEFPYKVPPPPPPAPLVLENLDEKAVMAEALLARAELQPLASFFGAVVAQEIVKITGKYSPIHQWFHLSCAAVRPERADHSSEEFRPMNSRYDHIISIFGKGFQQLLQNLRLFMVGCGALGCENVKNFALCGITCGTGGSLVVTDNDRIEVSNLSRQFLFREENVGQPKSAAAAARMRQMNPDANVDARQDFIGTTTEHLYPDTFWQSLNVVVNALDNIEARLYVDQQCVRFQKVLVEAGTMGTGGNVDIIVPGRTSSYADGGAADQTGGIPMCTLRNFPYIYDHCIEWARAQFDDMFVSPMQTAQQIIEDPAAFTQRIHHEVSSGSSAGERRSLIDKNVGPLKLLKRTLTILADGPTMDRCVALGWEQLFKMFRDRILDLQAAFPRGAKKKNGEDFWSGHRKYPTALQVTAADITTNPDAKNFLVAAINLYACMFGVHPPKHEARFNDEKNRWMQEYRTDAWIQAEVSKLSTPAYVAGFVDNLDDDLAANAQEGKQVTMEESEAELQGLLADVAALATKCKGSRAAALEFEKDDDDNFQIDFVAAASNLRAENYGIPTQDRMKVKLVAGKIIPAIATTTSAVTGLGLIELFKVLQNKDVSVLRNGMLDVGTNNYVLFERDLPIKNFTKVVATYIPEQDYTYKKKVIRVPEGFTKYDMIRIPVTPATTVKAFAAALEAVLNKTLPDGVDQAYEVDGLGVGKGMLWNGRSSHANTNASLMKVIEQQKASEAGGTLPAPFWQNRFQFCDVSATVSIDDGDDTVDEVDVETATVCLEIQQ
Assay: Leishmania donovani Ubiquitin Activating Enzyme (LdE1)
Type: functional
Set-up: scale not given: direction of the effect not stated beside the values
Details: 30 µM
Potency and affinity values are given separately.
Task for the reader: assign each of the following compounds its reported Percent Effect.
Answers are plain numbers, in %.

INSERT INTO results (compound, property_measured, measured_result) VALUES
  ('CNc1nc(CNC(=O)Nc2cccc(-c3nnco3)c2)cs1', 'Percent Effect', 8.11),
  ('Cc1noc([C@@]23CCO[C@@H]2CCN(C(=O)C2CCOCC2)C3)n1', 'Percent Effect', 10.7),
  ('O=C(NCc1nnc2n1CCCC2)N1CCc2ccccc2C1', 'Percent Effect', 11.4),
  ('Cc1cccc(C(=O)N2CCN(S(C)(=O)=O)[C@@H](C)C2)c1C', 'Percent Effect', -2.74),
  ('CN(C)S(=O)(=O)c1ccc(CN2CCCC2CO)o1 (stereo not drawn)', 'Percent Effect', 0),
  ('CCS(=O)(=O)Nc1ccn(Cc2cccc(Cl)c2)n1', 'Percent Effect', 0);

Count: 7. Required value per item: Percent Effect.
1. Cc1cnc2c(c1NCc1ccncc1)c(=O)n(C)c(=O)n2C
2. Cc1cc(C)n(CC(=O)N2CCC(NS(=O)(=O)c3ccccc3)CC2)n1
3. CC(C)c1ccsc1C(=O)N1CCCN(Cc2cscn2)CC1
4. COc1cccc(OCC2CCCN(C(=O)c3cnc(C)nc3O)C2)c1 (stereo not drawn)
5. CN(C)S(=O)(=O)N1CCC(Oc2ccccn2)CC1
6. O=C(CCC1CCCC1)NCCn1nc(C2CCNC2)c2nccnc21 (stereo not drawn)
7. Cc1ccc(C)c(C(NC(=O)C2CC2)c2cccnc2)c1 (stereo not drawn)

(A)
1: 0; 2: 13.2; 3: 2.6; 4: 8.11; 5: 2.6; 6: 12.2; 7: 18.2

Count: 5. Required value per item: Percent Effect.
1. CN(Cc1ccccc1)CC1(O)CCCN(CC(C)(C)C)C1=O (stereo not drawn)
2. COc1ccc(-n2ccc(C(=O)NCCN3CCCCC3C)n2)cc1 (stereo not drawn)
3. CCc1n[nH]c(C2CN(C(=O)c3cnc(C)s3)CCO2)n1 (stereo not drawn)
4. Cc1nc(C)c(C(=O)NCCNC(=O)Cc2ccccc2)s1
5. Cc1cc(C)c(CNC(=O)NCC2CCCO2)c(=O)[nH]1 (stereo not drawn)

(A)
[6.94, -8.11, 12.7, 16.2, 2.63]
